# study-system: D(2) dopamine receptor (Homo sapiens)
# Sequence (P14416 whole entry): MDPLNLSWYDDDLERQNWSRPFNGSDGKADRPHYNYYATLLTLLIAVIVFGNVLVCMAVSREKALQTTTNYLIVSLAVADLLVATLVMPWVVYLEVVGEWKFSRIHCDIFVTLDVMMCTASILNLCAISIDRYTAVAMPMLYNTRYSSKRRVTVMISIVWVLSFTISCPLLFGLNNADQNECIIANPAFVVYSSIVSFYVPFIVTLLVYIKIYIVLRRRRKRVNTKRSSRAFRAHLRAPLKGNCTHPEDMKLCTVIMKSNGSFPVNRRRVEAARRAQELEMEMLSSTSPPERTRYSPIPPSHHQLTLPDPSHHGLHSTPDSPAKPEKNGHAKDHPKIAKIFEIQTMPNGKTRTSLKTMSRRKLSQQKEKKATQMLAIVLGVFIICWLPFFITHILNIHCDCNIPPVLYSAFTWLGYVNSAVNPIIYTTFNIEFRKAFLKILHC
# method-description: Displacement of [125I]IABN from human D2L receptor expressed in HEK cells measured after 60 mins by gamma counting method
# Format: cell-based
pKi: −log10 of the molar value.
observable: pKi

• C=CCN1C[C@H](OC(=O)Nc2ccccc2)C[C@H]1CNC(=O)c1cc(CCCF)cc(OC)c1OC = 7.53
• C=CCN1C[C@H](OCCO)C[C@H]1CNC(=O)c1cc(CCCF)cc(OC)c1OC = 8.08
• C=CCN1C[C@H](OCCCNC(=O)c2ccc(-c3ccsc3)cc2)C[C@H]1CNC(=O)c1cc(CCCF)cc(OC)c1OC = 7.87
• C=CCN1CC[C@H](OCCCN)[C@H]1CNC(=O)c1cc(CCCF)cc(OC)c1OC = 7.67
• C=CCN1C[C@H](OC(=O)Nc2cccc(N(C)C)c2)C[C@H]1CNC(=O)c1cc(CCCF)cc(OC)c1OC = 7.85
• C=CCO[C@@H]1C[C@@H](CNC(=O)c2cc(CCCF)cc(OC)c2OC)N(CC=C)C1 = 8.13
• C=CCN1C[C@@H](OC(=O)Nc2ccc(-c3ccsc3)cc2)C[C@@H]1CNC(=O)c1cc(CCCF)cc(OC)c1OC = 6.72
• C=CCN1C[C@H](OCCCO)C[C@H]1CNC(=O)c1cc(CCCF)cc(OC)c1OC = 7.85
• C=CCN1C[C@H](OCc2ccc(F)cc2)C[C@H]1CNC(=O)c1cc(CCCF)cc(OC)c1OC = 8.02
• C=CCN1C[C@H](OCc2ccc(C(F)(F)F)cc2)C[C@H]1CNC(=O)c1cc(CCCF)cc(OC)c1OC = 7.49
• CCN1C[C@H](OCCCN)C[C@H]1CNC(=O)c1cc(CCCF)cc(OC)c1OC = 8.54
• C=CCN1C[C@@H](OC(=O)Nc2ccc(-c3ccsc3)cc2)C[C@H]1CNC(=O)c1cc(CCCF)cc(OC)c1OC = 5.01

====

# Organism: Homo sapiens
# method-description: Selectivity ratio of Ki for displacement of [125I]IABN from human D2L receptor expressed in HEK cells to Ki for displacement of [125I]IABN from human D3R expressed in HEK cells
# Type: cell-based
Decide by Ratio Ki: equal to or exceeding 2 means y, less means n.

• CCN1C[C@H](OCCCN)C[C@H]1CNC(=O)c1cc(CCCF)cc(OC)c1OC = y
• C=CCN1C[C@H](OCc2cccnc2)C[C@H]1CNC(=O)c1cc(CCCF)cc(OC)c1OC = n
• C=CCN1C[C@H](OCCCN)C[C@@H]1CNC(=O)c1cc(CCCF)cc(OC)c1OC = n
• CCN1C[C@H](OC(=O)Nc2ccc(-c3ccsc3)cc2)C[C@H]1CNC(=O)c1cc(CCCF)cc(OC)c1OC = y

====

# study-system: D(2) dopamine receptor (Homo sapiens)
# method-description: Binding affinity to D2 receptor (unknown origin)
observable: Ki (nM)

* C=CCN1CCC[C@H]1CNC(=O)c1cc(CCCF)cc(OC)c1OC [FALLYPRIDE] | 0.02

====

pKi: −log10 of the molar value.
Read-out record for UniProt:P35462: pKi
Sequence (P35462 whole entry): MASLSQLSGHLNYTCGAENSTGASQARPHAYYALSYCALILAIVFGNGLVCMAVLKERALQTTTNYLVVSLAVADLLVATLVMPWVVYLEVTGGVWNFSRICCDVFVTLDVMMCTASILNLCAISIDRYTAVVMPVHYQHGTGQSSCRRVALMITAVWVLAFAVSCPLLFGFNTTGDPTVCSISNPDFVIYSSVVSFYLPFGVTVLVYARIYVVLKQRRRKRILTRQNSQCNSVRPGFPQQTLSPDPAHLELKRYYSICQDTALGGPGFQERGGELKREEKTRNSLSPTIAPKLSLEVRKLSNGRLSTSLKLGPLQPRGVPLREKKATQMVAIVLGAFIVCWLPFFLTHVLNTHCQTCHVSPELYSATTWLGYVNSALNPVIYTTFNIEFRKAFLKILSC
observable: pKi

• C=CCN1C[C@H](OC(=O)Nc2cc(C)ccc2OC)C[C@H]1CNC(=O)c1cc(CCCF)cc(OC)c1OC = 7.90
• C=CCN1C[C@H](OC(=O)Nc2cccnc2)C[C@H]1CNC(=O)c1cc(CCCF)cc(OC)c1OC = 8.43
• CCN1C[C@H](OCCCN)C[C@H]1CNC(=O)c1cc(CCCF)cc(OC)c1OC = 8.85
• C=CCN1C[C@H](OCc2ccccc2)C[C@H]1CNC(=O)c1cc(CCCF)cc(OC)c1OC = 8.02
• C=CCN1C[C@H](OC(=O)Nc2ccccn2)C[C@H]1CNC(=O)c1cc(CCCF)cc(OC)c1OC = 8.39
• C=CCO[C@@H]1C[C@@H](CNC(=O)c2cc(CCCF)cc(OC)c2OC)N(CC=C)C1 = 8.59
• C=CCN1C[C@H](OCc2ccncc2)C[C@H]1CNC(=O)c1cc(CCCF)cc(OC)c1OC = 8.40
• C=CCN1C[C@H](OCCCN)C[C@H]1CNC(=O)c1cc(CCCF)cc(OC)c1OC = 8.08
